// provenance: ChEMBL document CHEMBL2321664

Target: RAC-alpha serine/threonine-protein kinase (Homo sapiens)
Sequence (P31749 whole entry): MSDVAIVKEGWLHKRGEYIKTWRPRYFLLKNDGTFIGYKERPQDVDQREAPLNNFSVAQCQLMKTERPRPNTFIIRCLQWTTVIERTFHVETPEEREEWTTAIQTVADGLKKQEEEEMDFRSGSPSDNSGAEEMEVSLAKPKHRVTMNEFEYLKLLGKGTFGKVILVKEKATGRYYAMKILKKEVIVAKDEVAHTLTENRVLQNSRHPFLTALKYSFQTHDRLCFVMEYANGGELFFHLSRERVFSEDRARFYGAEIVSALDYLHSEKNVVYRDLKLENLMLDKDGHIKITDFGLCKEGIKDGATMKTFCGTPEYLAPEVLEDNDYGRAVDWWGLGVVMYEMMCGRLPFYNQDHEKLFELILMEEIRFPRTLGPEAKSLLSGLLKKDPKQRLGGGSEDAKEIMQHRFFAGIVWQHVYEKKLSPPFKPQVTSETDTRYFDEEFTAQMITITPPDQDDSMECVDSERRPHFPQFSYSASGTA
Assay: Inhibition of IGF-1 induced Akt phosphorylation in PTEN-deficient human MDA-MB-468 cells pretreated for 2 hrs before IGF1 induction measured after 15 mins by Western blot analysis
metric: IC50

Test item N[C@@H](Cc1ccccc1)C(=O)N1CCN(c2nc(N3CCOCC3)nc(-n3c(C(F)F)nc4ccccc43)n2)CC1 ; RAC-alpha serine/threonine-protein kinase (Homo sapiens); reported IC50 was < 10 nM

###

Target: Phosphatidylinositol 4,5-bisphosphate 3-kinase catalytic subunit beta isoform (Homo sapiens)
Sequence (P42338 whole entry, canonical isoform): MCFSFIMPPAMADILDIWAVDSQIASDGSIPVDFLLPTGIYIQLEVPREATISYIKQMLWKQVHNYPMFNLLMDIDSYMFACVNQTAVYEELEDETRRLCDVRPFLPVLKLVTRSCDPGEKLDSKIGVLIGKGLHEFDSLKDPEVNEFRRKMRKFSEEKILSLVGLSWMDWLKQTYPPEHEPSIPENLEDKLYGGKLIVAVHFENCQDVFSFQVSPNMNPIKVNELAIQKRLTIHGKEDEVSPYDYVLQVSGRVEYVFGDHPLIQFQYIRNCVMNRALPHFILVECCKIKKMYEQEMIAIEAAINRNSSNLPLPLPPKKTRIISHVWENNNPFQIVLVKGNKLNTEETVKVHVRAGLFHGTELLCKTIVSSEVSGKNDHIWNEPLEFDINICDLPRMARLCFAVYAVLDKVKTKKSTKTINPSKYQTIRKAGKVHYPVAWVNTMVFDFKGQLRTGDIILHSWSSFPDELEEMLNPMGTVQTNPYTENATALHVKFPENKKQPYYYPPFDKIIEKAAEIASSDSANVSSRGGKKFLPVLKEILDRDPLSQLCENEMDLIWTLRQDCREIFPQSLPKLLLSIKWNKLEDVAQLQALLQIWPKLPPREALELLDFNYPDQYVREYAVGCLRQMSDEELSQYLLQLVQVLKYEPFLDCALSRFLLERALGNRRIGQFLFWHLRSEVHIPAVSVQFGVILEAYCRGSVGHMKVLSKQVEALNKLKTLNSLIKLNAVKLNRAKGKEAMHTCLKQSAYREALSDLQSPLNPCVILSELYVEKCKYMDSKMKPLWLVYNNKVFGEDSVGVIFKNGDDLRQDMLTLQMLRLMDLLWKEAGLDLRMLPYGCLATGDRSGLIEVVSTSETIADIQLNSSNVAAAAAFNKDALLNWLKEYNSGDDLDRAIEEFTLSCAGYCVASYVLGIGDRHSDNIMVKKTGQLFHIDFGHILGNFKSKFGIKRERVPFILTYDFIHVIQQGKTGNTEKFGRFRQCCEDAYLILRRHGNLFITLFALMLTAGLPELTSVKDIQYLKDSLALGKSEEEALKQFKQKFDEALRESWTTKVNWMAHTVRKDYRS
Experiment: Inhibition of PI3K-beta (unknown origin) assessed as decrease in ATP consumption using phosphatidylinositol bisphosphate and 10 uM ATP as substrate measured after 60 mins by luminescence assay
Listed here: items and their measured log10 IC50.
Note the log scale: values are log10 of IC50 expressed in nM.

CC(=O)NCC(=O)N1CCN(c2nc(N3CCOCC3)nc(-n3c(C(F)F)nc4ccccc43)n2)CC1 = 1.73
NCCCC[C@H](N)C(=O)N1CCN(c2nc(N3CCOCC3)nc(-n3c(C(F)F)nc4ccccc43)n2)CC1 = 1.70
N[C@@H](Cc1ccc(O)cc1)C(=O)N1CCN(c2nc(N3CCOCC3)nc(-n3c(C(F)F)nc4ccccc43)n2)CC1 = 2.34

Sure, the documented log10 IC50 for C[C@H](N)C(=O)N1CCN(c2nc(N3CCOCC3)nc(-n3c(C(F)F)nc4ccccc43)n2)CC1 is 1.49

Sure, the documented log10 IC50 for C[C@@H](N)C(=O)N1CCN(c2nc(N3CCOCC3)nc(-n3c(C(F)F)nc4ccccc43)n2)CC1 is 3.00

###

Biological target: Phosphatidylinositol 4,5-bisphosphate 3-kinase catalytic subunit beta isoform (Homo sapiens)
Assay: Inhibition of PI3K-beta (unknown origin) assessed as decrease in ATP consumption using phosphatidylinositol bisphosphate and 10 uM ATP as substrate measured after 60 mins by luminescence assay
Listed here: items and their measured IC50.
Write the number in µM without appending the unit.

Worked cases, answers included:
NCC(=O)N1CCN(c2nc(N3CCOCC3)nc(-n3c(C(F)F)nc4ccccc43)n2)CC1 = 0.035
CN(C)CC(=O)N1CCN(c2nc(N3CCOCC3)nc(-n3c(C(F)F)nc4ccccc43)n2)CC1 = 2.4
N[C@@H](Cc1ccccc1)C(=O)N1CCN(c2nc(N3CCOCC3)nc(-n3c(C(F)F)nc4ccccc43)n2)CC1 = 0.063
O=C([C@@H]1CCCN1)N1CCN(c2nc(N3CCOCC3)nc(-n3c(C(F)F)nc4ccccc43)n2)CC1 = 0.026
CC[C@H](C)[C@H](N)C(=O)N1CCN(c2nc(N3CCOCC3)nc(-n3c(C(F)F)nc4ccccc43)n2)CC1 = 0.067

Sure, the documented IC50 for CN[C@@H](C)C(=O)N1CCN(c2nc(N3CCOCC3)nc(-n3c(C(F)F)nc4ccccc43)n2)CC1 is 0.26

Sure, the documented IC50 for NCCC(=O)N1CCN(c2nc(N3CCOCC3)nc(-n3c(C(F)F)nc4ccccc43)n2)CC1 is 0.098

###

Molecular target: Phosphatidylinositol 4,5-bisphosphate 3-kinase catalytic subunit gamma isoform (Homo sapiens)
Sequence (P48736 whole entry, canonical isoform): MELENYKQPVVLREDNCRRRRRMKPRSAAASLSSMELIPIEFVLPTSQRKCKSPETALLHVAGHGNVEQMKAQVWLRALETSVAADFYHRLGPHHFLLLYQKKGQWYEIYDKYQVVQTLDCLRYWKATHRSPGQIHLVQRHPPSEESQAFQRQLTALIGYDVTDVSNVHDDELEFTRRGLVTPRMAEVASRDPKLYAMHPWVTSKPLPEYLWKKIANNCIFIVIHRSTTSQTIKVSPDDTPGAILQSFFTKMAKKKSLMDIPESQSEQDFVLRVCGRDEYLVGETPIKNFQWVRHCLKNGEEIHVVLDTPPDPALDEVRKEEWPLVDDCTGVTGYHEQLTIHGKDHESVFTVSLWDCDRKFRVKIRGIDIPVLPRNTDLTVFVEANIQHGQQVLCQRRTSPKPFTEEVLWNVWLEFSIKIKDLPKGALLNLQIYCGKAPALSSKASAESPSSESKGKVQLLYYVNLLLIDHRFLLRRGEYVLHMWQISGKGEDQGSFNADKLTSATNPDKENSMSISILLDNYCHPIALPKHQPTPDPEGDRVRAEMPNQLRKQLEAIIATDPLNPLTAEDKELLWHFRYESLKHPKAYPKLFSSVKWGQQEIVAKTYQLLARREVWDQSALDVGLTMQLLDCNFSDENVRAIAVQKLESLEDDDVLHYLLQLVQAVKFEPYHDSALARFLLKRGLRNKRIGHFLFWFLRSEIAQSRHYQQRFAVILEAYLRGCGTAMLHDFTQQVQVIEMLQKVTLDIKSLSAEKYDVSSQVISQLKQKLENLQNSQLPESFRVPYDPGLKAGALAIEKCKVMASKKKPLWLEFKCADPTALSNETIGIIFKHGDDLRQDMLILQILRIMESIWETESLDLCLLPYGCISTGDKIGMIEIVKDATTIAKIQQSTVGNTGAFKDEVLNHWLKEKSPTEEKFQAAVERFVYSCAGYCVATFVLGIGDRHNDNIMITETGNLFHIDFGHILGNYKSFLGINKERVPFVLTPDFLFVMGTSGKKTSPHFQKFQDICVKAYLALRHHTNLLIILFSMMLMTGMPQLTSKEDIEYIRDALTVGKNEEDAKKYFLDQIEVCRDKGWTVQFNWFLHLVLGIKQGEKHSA
Assay: Inhibition of PI3K-gamma (unknown origin) assessed as decrease in ATP consumption using phosphatidylinositol bisphosphate and 10 uM ATP as substrate measured after 60 mins by luminescence assay
metric: IC50 (µM)
Write the number in µM without appending the unit.

NCC(=O)N1CCN(c2nc(N3CCOCC3)nc(-n3c(C(F)F)nc4ccccc43)n2)CC1 = 9.9

Next, consider the following compound.
Sure, the documented IC50 for CC(=O)NCC(=O)N1CCN(c2nc(N3CCOCC3)nc(-n3c(C(F)F)nc4ccccc43)n2)CC1 is 0.38
